systemName: Endothelial lipase (Mus musculus, UniProt Q9WVG5)
Sequence (Q9WVG5 whole entry): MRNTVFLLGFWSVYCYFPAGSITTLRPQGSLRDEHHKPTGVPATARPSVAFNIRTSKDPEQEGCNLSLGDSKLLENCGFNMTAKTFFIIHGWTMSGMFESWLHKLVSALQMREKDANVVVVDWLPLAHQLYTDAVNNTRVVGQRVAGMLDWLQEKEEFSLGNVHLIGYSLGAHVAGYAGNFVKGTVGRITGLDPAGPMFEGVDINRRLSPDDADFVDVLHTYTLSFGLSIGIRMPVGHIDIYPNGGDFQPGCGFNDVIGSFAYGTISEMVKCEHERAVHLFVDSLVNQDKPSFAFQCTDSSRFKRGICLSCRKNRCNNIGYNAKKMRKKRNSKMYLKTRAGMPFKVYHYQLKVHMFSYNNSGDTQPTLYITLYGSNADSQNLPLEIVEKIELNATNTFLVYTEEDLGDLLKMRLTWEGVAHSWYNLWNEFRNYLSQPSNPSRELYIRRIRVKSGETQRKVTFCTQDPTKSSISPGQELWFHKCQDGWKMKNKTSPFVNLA
experimentDescription: Inhibition of mouse endothelial lipase using PLAi as substrate measured for 30 mins by cell-based fluorescence assay
Would you kindly list pIC50 for each of these molecules?
Schema: pIC50 number; meaning minus log10 of the concentration expressed in molar units.

Ask | Give recorded pIC50 with Endothelial lipase (Mus musculus, UniProt Q9WVG5) for the following molecule: "FC(F)(F)c1c(CCCc2ccccc2)n2c3c(cccc13)SCC2"
Reply | 4.48

Ask | Give recorded pIC50 with Endothelial lipase (Mus musculus, UniProt Q9WVG5) for the following molecule: "Nc1cc2c3c(c1)c(C(F)(F)F)c(CCCc1ccccc1)n3CCC2"
Reply | 8.40
